# Study System: MT1 receptor (Homo sapiens, UniProt P48039)
# Sequence (P48039 whole entry): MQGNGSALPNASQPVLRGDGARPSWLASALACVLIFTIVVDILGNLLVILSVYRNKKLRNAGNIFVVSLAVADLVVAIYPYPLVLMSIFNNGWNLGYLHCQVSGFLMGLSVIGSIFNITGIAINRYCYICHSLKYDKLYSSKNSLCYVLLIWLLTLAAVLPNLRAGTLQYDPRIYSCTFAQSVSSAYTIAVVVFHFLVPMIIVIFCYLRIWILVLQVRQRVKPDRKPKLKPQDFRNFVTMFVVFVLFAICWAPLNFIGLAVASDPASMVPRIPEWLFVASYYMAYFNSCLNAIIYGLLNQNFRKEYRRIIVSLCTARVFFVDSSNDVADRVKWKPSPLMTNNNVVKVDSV
# Test Method Notes: FLIPR Ca2+ mobilization assay, MT1
# Format: cell-based
# Parameters: expressed in transfected cells; host or cells: COS-7 (monkey kidney fibroblast)
# Condition: Table 1; MT1; relative to 2-IMT response
Items are presented alongside their recorded % Response of 2-IMT.
The figure you give is taken to be in %; do not add the unit.

{"Molecule": "COc1ccc2c(=O)n(C)ccc2c1OCc1ccccc1 [IS005]", "% Response of 2-IMT [%]": 30.5}
{"Molecule": "COc1cc2ccn(C)c(=O)c2cc1O [IS002]", "% Response of 2-IMT [%]": 31.7}
{"Molecule": "COc1cc2ccn(C)c(=O)c2cc1OCc1ccc(C(C)(C)C)cc1 [IS526]", "% Response of 2-IMT [%]": 46.2}
{"Molecule": "COc1cc2ccn(C)c(=O)c2cc1OCCCc1ccccc1 [IS013]", "% Response of 2-IMT [%]": 75.0}
{"Molecule": "COc1cc(COc2c(OC)ccc3c(=O)n(C)ccc23)cc(OC)c1 [IS528]", "% Response of 2-IMT [%]": 42.1}
{"Molecule": "COc1ccc(O)c2c(=O)n(C)ccc12 [IS030]", "% Response of 2-IMT [%]": 67.5}
{"Molecule": "COc1cccc(COc2cc3ccn(C)c(=O)c3cc2OC)c1 [IS044]", "% Response of 2-IMT [%]": 54.5}
{"Molecule": "COc1cc2c(=O)n(C)ccc2cc1O [IS001]", "% Response of 2-IMT [%]": 71.9}

Exercise: Lookup: % Response of 2-IMT / MT1 receptor (Homo sapiens, UniProt P48039) / COc1cc2c(=O)n(C)ccc2cc1OCc1ccccc1 [IS016]
Key: 65.3

Exercise: Lookup: % Response of 2-IMT / MT1 receptor (Homo sapiens, UniProt P48039) / COc1cccc(COc2cc3c(=O)n(C)ccc3cc2OC)c1 [IS521]
Key: 31.8

Exercise: Lookup: % Response of 2-IMT / MT1 receptor (Homo sapiens, UniProt P48039) / COc1cc(COc2cc3ccn(C)c(=O)c3cc2OC)cc(OC)c1 [IS042]
Key: 49.4

* * *

Items are presented alongside their recorded log10 of EC50.
# Study System: UniProt:P49286
# Sequence (P49286 whole entry): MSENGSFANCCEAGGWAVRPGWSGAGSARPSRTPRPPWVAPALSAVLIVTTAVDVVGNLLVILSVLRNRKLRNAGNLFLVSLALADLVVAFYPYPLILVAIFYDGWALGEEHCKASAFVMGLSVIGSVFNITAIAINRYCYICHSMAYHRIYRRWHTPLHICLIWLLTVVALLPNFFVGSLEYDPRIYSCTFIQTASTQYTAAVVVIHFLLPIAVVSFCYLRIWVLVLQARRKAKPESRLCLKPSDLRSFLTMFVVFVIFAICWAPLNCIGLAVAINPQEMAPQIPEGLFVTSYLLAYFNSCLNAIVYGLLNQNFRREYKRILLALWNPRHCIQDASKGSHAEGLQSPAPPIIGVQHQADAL
# Test Method Notes: FLIPR Ca2+ mobilization assay, MT2
# Assay type: cell-based
# Design: expressed in transfected cells; host or cells: COS-7 (monkey kidney fibroblast)
# Condition: Table 1; MT2 in COS-7 cells with chimeric G protein; log value, negative; NSR = no significant response; read-out: Log(EC50) ± SEM (converted)
Recall that a logarithmic scale is used here: each number is log10 of EC50 in nM.

{"Compound Structure String": "COc1cc(COc2cc3ccn(C)c(=O)c3cc2OC)cc(OC)c1", "Measured Parameter": "log10 of EC50", "Result Value": -0.42}

Exercise: Need log10 of EC50, item COc1ccc2c(=O)n(C)ccc2c1OCc1ccc(Br)cc1
Key: 2.09

Exercise: Need log10 of EC50, item COc1cc2ccn(C)c(=O)c2cc1OCCCCCl
Key: 0.79

Exercise: Need log10 of EC50, item C=CCOc1c(OC)ccc2c(=O)n(C)ccc12
Key: 0.54
